Target: T1, human CD71 extracellular domain (human, UniProt P02786 89-760, biotinylated)
T1 construct: also called hCD71; CD71-ECD
T1 sequence (P02786 89-760): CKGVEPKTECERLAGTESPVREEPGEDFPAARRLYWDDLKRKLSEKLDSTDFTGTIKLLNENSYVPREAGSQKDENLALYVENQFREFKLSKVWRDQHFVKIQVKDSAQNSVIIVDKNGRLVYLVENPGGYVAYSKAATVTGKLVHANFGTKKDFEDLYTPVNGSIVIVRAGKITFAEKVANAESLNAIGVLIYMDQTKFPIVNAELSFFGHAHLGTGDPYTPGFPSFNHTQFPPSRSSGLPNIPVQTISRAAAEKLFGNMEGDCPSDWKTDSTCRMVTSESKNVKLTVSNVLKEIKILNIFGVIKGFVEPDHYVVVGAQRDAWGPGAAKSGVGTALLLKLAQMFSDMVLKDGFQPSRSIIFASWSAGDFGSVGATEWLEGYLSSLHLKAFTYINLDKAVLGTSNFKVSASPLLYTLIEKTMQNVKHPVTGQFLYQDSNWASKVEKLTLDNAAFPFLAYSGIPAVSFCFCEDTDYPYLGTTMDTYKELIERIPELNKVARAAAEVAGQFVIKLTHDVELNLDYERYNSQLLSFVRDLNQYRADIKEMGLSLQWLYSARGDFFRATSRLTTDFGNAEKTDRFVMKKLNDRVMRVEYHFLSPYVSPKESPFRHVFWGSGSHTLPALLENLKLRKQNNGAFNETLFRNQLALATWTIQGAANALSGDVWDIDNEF
Assay: primary ELISA, RLU over HSA
Exercise: state measured hCD71:HSA for each of the binders provided.
One number for each entry.

// solved cases for hCD71:HSA follow
1) CD71-binding FN3 domain of SEQ ID NO: 446 (designed binder) MLPAPKNLVVSRVTEDSARLSWTAPDAAFDSFFIGYLEPQPPGEAIQLFVPGSERSYDLTGLKPGTEYNVTIQGVKGGFPSLPLIAYFTT; 37
2) CD71-binding FN3 domain of SEQ ID NO: 478 (designed binder) MLPAPKNLVVSRVTEDSARLSWTAPDAAFDSFFIGYLEPQPPGEAIHLYVPGSERSYDLTGLKPGTEYNVTIQGVKGGFPSVPLIAKFTT; 56
3) CD71-binding FN3 domain of SEQ ID NO: 527 (designed binder) MLPAPKNLVVSRVTEDSARLSWTAPDAAFDSFFIGYLEPQPPGEAIHLYVPGSERSYDLTGLKPGTEYNVTIQGVKGGFPSEPLIANFTT; 15

# input for lookup
Name the recorded hCD71:HSA for CD71-binding FN3 domain of SEQ ID NO: 480 (designed binder) MLPAPKNLVVSRVTEDSARLSWTAPDAAFDSFEIDYAEDIREGEAIALVVPGSERSYDLTGLKPGTEYWVSIGGVKGGTWSRPLFAPFTT . 70

FYI, the data here is from patent US20260151494A1.
